# system name: Human immunodeficiency virus type 1 integrase (Human immunodeficiency virus 1)
# Sequence (Q7ZJM1 whole entry): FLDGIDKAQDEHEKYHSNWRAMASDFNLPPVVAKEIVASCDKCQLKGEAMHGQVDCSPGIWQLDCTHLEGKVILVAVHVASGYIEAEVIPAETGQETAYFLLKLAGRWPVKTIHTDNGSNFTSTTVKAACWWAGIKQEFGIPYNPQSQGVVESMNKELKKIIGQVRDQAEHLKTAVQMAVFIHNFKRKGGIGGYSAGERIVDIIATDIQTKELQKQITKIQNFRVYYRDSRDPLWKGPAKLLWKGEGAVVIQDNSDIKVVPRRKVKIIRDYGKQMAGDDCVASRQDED
# assay notes: Inhibitory concentration to inhibit HIV-1 integrase by 3' -processing method
pIC50: −log10 of the molar value.
observation type: pIC50

Study these solved cases before continuing.
INSERT INTO measurements (compound, system_name, value) VALUES
  ('CCOC(=O)C(CCCCn1cnc2ncnc(Cl)c21)(NC(C)=O)C(=O)OCC', 'Human immunodeficiency virus type 1 integrase (Human immunodeficiency virus 1)', '< 3.70'),
  ('NS(=O)(=O)c1ccc(NC(=O)/C=C/C(=O)O)cc1', 'Human immunodeficiency virus type 1 integrase (Human immunodeficiency virus 1)', '< 3.70'),
  ('Cc1nnc(NS(=O)(=O)c2ccc(C3SC(=S)NC3=O)cc2)s1 (stereo unspecified)', 'Human immunodeficiency virus type 1 integrase (Human immunodeficiency virus 1)', 4.62),
  ('CC(=O)Nc1ccc(S(=O)(=O)/N=N/NCC(=O)O)cc1', 'Human immunodeficiency virus type 1 integrase (Human immunodeficiency virus 1)', '< 3.70');

I'd like to know its pIC50. The compound in question is `CS(=O)(=O)Nc1ccc2oc(=O)c3ccccc3c2c1`
< 3.70

I would be grateful if you could share the reported pIC50 for CC(=O)C1(/N=N/c2ccc(S(=O)(=O)Nc3nnc(C)s3)cc2)CCOC1=O (stereo unspecified) .
3.61
